- Test system: OVCAR-5 ovarian
- Assay: NCI-60 one-dose screen, 48 h (100 = growth as untreated, 0 = no growth, -100 = all killed)
- Protocol conditions: 10 µM unless noted
About 83,000 compounds went through this panel and 20% of them were active in at least one assay; those are over-represented in the sample as a whole. Calls of active or inactive are those of the source. Rule for the calls: active = growth percent below 10; inactive = the rest.
Entries annotated with measured growth

# Molecule, growth
rows = [
    ("Cc1cc(-c2ccccc2)c(C)n1Cc1ccc(Cl)cc1", "64.5% (inactive)"),
    ("COc1ccc(-n2cnc3c(sc4ncc(Cl)cc43)c2=O)cc1", "98.6% (inactive)"),
]

Asked: // query growth value for entry COc1ccc(C2=NN(c3ccc(S(N)(=O)=O)cc3)C(c3cn(-c4ccccc4)nc3-c3ccc(Cl)cc3)C2)cc1 (stereo unspecified)
Given back: 114% (inactive)

Asked: Quick check: growth of COc1ccc(/C(=N/O)c2cc(F)c(F)c(OC)c2F)cc1O ?
Given back: 52.1% (inactive)

Asked: Consider the molecule shown here: CC(Br)C(O)c1cc2c(cc1Br)OCO2 (stereo unspecified) What is its recorded growth?
Given back: 108% (inactive)

Asked: // lookup growth for CC(C)C(C(=O)CCN(C)C)c1ccc(Cl)cc1 (stereo unspecified)
Given back: 115% (inactive)

* * *

- Test system: NCI-H460 lung
- Assay: NCI-60 one-dose screen, 48 h (100 = growth as untreated, 0 = no growth, -100 = all killed)
- Protocol conditions: 10 µM unless noted
Compounds without any hit were thinned out: in the full panel of roughly 83,000, 20% have a hit.
Consider the cut-off 50%. If the recorded growth is strictly smaller, the label is yes; if not, the label is no.

Sample answers from the record:
# Compound, Class name
records = [
    ("CCN(C(=O)c1cc2ccccc2[nH]1)[C@H]1CCC[C@@H](NCc2ccc(OC)cc2)C1", "no"),
    ("COc1cc(CCn2nnc3c(Nc4ccc(N5CCOCC5)cc4)ncnc32)cc(OC)c1", "no"),
]

Asked: growth strictly < 50% for this compound? COc1ccc(C2CC(c3cccs3)=NN2c2ccc(S(=O)(=O)NC(=O)Nc3ccc(C)cc3)cc2)cc1 (stereo not given)
Given back: no

Asked: Does the reported growth of COc1ccc(/C(=N/O)c2cc(F)c(F)c(OC)c2F)cc1O stay below 50%?
Given back: yes

Asked: For this compound, is growth lower than 50%? COc1ccc(/C=C2\Oc3cc(OCCN4CCCC4)ccc3C2=O)c(OC)c1
Given back: no

Asked: Does the reported growth of the following compound sit strictly below 50%? CCCCNC(=O)NS(=O)(=O)c1ccc(N2N=C(c3ccc(C)cc3C)CC2c2ccc(OC)cc2)cc1 (stereo not given)
Given back: yes

* * *

- Test system: NCI-H460 lung
- Assay: NCI-60 one-dose screen, 48 h
- Protocol conditions: 10 µM unless noted
The panel holds about 83,000 compounds, 20% with a hit somewhere; the sample as a whole holds those more often. The source made the active and inactive calls. Rule for the calls: active = growth percent below 10; inactive = the rest.
Returns: one label drawn from class 1 for active, class 0 for inactive

Answered examples (5):
# Molecule, Class name
data = [
    ("COc1ccc(-c2nc(-c3nc4ccc(F)cc4[nH]3)cc3c2[nH]c2ccccc23)cc1", "class 0"),
    ("Cc1ccc(C(=O)c2sc3nc4c(cc3c2N)CCCC4)c(C)c1", "class 0"),
    ("O=C(/C=C/CN1CCOCC1)Nc1cc2c(Nc3cccc(Cl)c3F)ncnc2cc1OCCOC(F)F", "class 0"),
    ("O=C(Nc1ccccc1)OCC1OCOC(COC(=O)Nc2ccccc2)C1OC(=O)Nc1ccccc1 (stereo not given)", "class 1"),
    ("CCCCC(N)(C(=O)O)C1CCCC1 (stereo not given)", "class 0"),
]

Asked: Dear colleague, could you share the recorded outcome for CCOC(=O)CC(C#N)(CC(=O)OCC)C(=O)OCC when you have a moment?
Given back: class 0

Asked: Would you mind telling me which call this test gave Cc1oc2ncnc(Nc3ccccc3)c2c1C(=O)NCCO ?
Given back: class 0

Asked: Fill in: this test's call for COc1ccc(-c2nc3sccn3c2-c2ccnc(NCCCNS(=O)(=O)c3ccc(C)cc3)n2)cc1 is ___
Given back: class 0

Asked: Outcome logged for CCC(=O)Oc1ccc2c(c1)CC[C@@H]1[C@@H]2CC[C@]2(C)C[C@H](OC(=O)CC)C[C@@H]12 in this assay:
Given back: class 0

Asked: Please indicate how the test categorized O=[N+]([O-])c1cc(S(=O)(=O)OCC2CO2)ccc1Cl (stereo not given) .
Given back: class 0

* * *

- Tested on: SK-OV-3 ovarian
- Assay: NCI-60 one-dose screen, 48 h (100 = growth as untreated, 0 = no growth, -100 = all killed)
- Protocol conditions: 10 µM unless noted
About 83,000 compounds went through this panel and 20% of them were active in at least one assay; those are over-represented in the sample as a whole.
Note to self: values exactly at 90% are Yes. So growth at or above 90% is Yes, below is No.

# count of solved cases: 3
# Compound, Class name
records = [
    ("Cc1cc(Nc2nc(-c3ccncc3)nc3ccccc23)n[nH]1", "No"),
    ("NC(=O)NC(=O)/C=C/C(=O)OCCCl", "Yes"),
    ("COc1ccc(Cn2c(SC)nc(=O)n(Cc3ccc(Cl)cc3)c2=O)cc1", "Yes"),
]

Asked: Could you please find out whether Cc1cccc(NC(=O)c2sc3nc4c(cc3c2N)CCC4)c1C has growth that meets 90% or exceeds it?
Given back: No

Asked: For this compound, is measured growth 90% or higher? COc1ccc(/C(=N/O)c2cc(OC)c(OC)c(OC)c2)c(OC)c1N
Given back: No

Asked: Item COc1cc(NC(=O)c2cc3ccccc3nc2Nc2ccc(F)cc2)cc(OC)c1OC with growth of 90% or above?
Given back: No

Asked: Threshold query (growth >= 90%) on COc1ccc(C(=O)c2cc(OC)c(OC)c(OC)c2)cc1/C=C/C(=O)c1ccc2c(c1)OCO2
Given back: No

* * *

- Tested on: HT29 colon
- Assay: NCI-60 one-dose screen, 48 h
- Protocol conditions: 10 µM unless noted
About 83,000 compounds went through this panel and 20% of them were active in at least one assay; those are over-represented in the sample as a whole. Calls of active or inactive are those of the source. The calls were made as follows: active = growth percent below 10; inactive = the rest.
The reply should name one outcome from active, inactive

Use these answered entries as a reference point.
# Compound, Class name
rows = [
    ("CCn1c(=O)c2c(=O)c3c4c(oc3oc2c2ccccc21)C(=O)c1ccccc1C4=O", "inactive"),
    ("COc1cc(Cn2c(SCCC(=O)Nc3ccc(F)cc3)nc3ccccc3c2=O)cc(OC)c1OC", "inactive"),
    ("CCCCNC(=O)NS(=O)(=O)c1ccc(N2N=C(c3ccc(C)cc3C)CC2c2ccc(OC)cc2)cc1 (stereo not given)", "inactive"),
    ("O=C(NNC(=S)Nc1ccccc1)c1ccccn1", "inactive"),
]

Asked: // param item: COc1ccc(NC(=O)CSc2nc3ccccc3c(=O)n2-c2ccccc2C(F)(F)F)c(OC)c1OC ; yields the recorded call
Given back: inactive

Asked: Hi team, can someone confirm the assay call for c1ccc2nc(-c3ccc4ccccc4n3)ccc2c1 ?
Given back: inactive

Asked: So what was the verdict on c1cncc(CNc2ccccc2-c2nnc(Nc3ccc4c(c3)OCCO4)o2)c1 in this test?
Given back: active

Asked: Hey, what did the test say about CCCCCC(=O)OCc1ccccc1 ?
Given back: inactive

Asked: State the result this test recorded for COc1cc(CCn2nnc3c(Nc4ccc(N5CCOCC5)cc4)ncnc32)cc(OC)c1 .
Given back: inactive

Asked: Please let me know the test result on file for COc1cc(Cn2c(SCC(=O)Nc3cc(OC)c(OC)c(OC)c3)nc3ccccc3c2=O)cc(OC)c1OC .
Given back: inactive

Asked: Given Cc1nn(-c2ccc(Cl)cc2)c(=O)n1CCOc1ccccc1Cl , state the outcome it received in this test.
Given back: inactive

Asked: Record request — test call for O=[N+]([O-])c1ccc(S(=O)(=O)N2CCN(c3ccnc4cc(Cl)ccc34)CC2)c([N+](=O)[O-])c1
Given back: inactive

* * *

- Tested on: EKVX NSCLC
- Assay: NCI-60 one-dose screen, 48 h (100 = growth as untreated, 0 = no growth, -100 = all killed)
- Protocol conditions: 10 µM unless noted
- Method: Growth inhibition of the EKVX human Non-Small Cell Lung tumor cell line is measured as a screen for anti-cancer activity. Cells are grown in 96 well plates and exposed to the test compound for 48 hours. Compounds are tested at a single concentration, which is 10^-5 M for most compounds. The reported endpoint is percent growth (GI% or GIPRCNT), where numbers from 0 - 100% represent growth inhibition, and numbers from -100% - 0 represent cell death. […]
Compounds without any hit were thinned out: in the full panel of roughly 83,000, 20% have a hit.
Endpoint: growth (%)
All answers are understood in %, so give the number only.

Study these solved cases before continuing.
# Query smiles, growth, %
data = [
    ("CCSc1nnc(NC(=O)Cc2ccc(Cl)cc2)s1", 103),
    ("Cc1ccnc2nc(C(=O)OCC(=O)Nc3ccc(-c4ccccc4)cc3)nn12", 104),
    ("COc1ccc(/C(=N/O)c2cc(OC)c(OC)c(OC)c2)c(OC)c1N", 47.4),
    ("O=S(=O)(NCCNc1cc(-c2cn(-c3ccccc3)nc2-c2ccccc2)ccn1)c1ccc(F)cc1", 71.3),
]

Asked: Fill in the blank: the reported growth of O=C1C2=C(C(=O)c3c(O)ccc(O)c31)N(c1cccnc1)Cc1ccccc1O2 is ____.
Given back: 2.08
